TESTED_TARGET: HiBiT-SOCS2 fusion in HeLa cells (Homo sapiens, UniProt O14508)
Construct: encoding SOCS2 (32–198) in pBiT3.1-N expression vector; expressed in transfected cells; host or cells: HeLa
Sequence (O14508 32-198): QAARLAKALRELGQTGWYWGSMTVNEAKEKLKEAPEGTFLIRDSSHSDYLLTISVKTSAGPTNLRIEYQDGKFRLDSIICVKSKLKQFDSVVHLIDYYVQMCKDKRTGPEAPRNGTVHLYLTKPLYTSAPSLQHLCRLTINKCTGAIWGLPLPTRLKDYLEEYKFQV
Sequence (Q15370 whole entry, further chain, the tested form may be a part): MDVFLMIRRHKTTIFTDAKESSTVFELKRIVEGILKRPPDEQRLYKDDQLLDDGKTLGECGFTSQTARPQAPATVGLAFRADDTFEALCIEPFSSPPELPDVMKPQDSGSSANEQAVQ
Sequence (Q15369 whole entry, further chain, the tested form may be a part): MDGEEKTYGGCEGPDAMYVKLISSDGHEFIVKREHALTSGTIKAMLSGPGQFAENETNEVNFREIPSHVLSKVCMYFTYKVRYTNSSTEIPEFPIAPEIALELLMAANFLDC
ASSAY_COMMENT: Split-NanoLuc CETSA, live-cell mode
Assay type: cell-based
STUDY_CONDITIONS: 2 hours EC50, MN714 dose response CETSA, Mean
Experimental: One of the challenges with small-molecule binders displaying on-target activity with recombinant proteins, is to translate their utility to a cellular context. […] One of the advantages of CETSA is that target engagement can be monitored without the need for the development of a cell-permeable tracer molecule. […] N-terminal HiBiT-SOCS2 fusion was generated by encoding SOCS2 (32–198) in pBiT3.1-N expression vector (Promega). […] Luminescence was recorded with GloMax Discover Microplate Reader (Promega). […]
pEC50: −log10 of the molar value.
READOUT: pEC50

> print(dat)
                           structure.string                             tested.target  result.number
1  CC(C)(C)C(=O)OCOP(=O)(OCOC(=O)C(C)(C)C)Oc1ccc(C[C@H](NC(=O)Cc2ccc(F)cc2)C(=O)NCc2cccc(NC(=O)CCl)c2)cc1  HiBiT-SOCS2 fusion in HeLa cells (Homo sapiens, UniProt O14508)           5.42

====

TESTED_TARGET: SBC2 (Homo sapiens, UniProt O14508)
Construct: SOCS2 (amino acids 32–198); His6 (N, cleaved yes); made in house; host or cells: E. coli BL21(DE3)
Sequence (O14508 32-198): as the sequence (O14508 32-198) above
Sequence (Q15370 1-104 partner limits assumed): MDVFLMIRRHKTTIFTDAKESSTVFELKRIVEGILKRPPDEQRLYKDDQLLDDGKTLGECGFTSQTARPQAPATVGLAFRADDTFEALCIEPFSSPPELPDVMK
Sequence (Q15369 17-112 partner limits assumed): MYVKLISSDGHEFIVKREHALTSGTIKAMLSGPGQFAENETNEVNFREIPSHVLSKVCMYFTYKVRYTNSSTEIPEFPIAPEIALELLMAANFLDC
ASSAY_COMMENT: 19F ligand-observed displacement (CPMG) NMR assay
Type: binding
STUDY_CONDITIONS: Table 1, n = 1
# Lookup of reported Kd keyed by entry
READOUT: Kd (µM)

> print(dat)
                                   molecule  scale.unit  result.number
1  CNC(=O)[C@H](Cc1ccc(OP(=O)(O)O)cc1)NC(C)=O [Compound 1]          µM            186
2  CNC(=O)[C@H](Cc1ccc(OP(=O)(O)O)cc1)NC(=O)Cc1ccc(F)cc1 [Compound 5]          µM             32

====

TESTED_TARGET: SBC2 (Homo sapiens, UniProt O14508)
Construct: SOCS2 (amino acids 32–198); His6 (N, cleaved yes); made in house; host or cells: E. coli BL21(DE3)
ASSAY_COMMENT: Isothermal titration calorimetry (ITC), direct titration
Format: binding
# Lookup of reported ITC −TΔS keyed by entry
READOUT: ITC −TΔS (kcal/mol)

> print(dat)
                                   compound                        tested.target   readout  scale.unit  result.number
1  C=CCc1cccc(CNC(=O)[C@H](Cc2ccc(OP(=O)(O)O)cc2)NC(=O)Cc2ccc(F)cc2)c1 [Compound 14]  SBC2 (Homo sapiens, UniProt O14508)  ITC −TΔS    kcal/mol          -2.26
2  O=C(Cc1ccc(F)cc1)N[C@@H](Cc1ccc(OP(=O)(O)O)cc1)C(=O)NCc1ccc(F)cc1 [Compound 9]  SBC2 (Homo sapiens, UniProt O14508)  ITC −TΔS    kcal/mol          -3.55
3  Cc1cccc(CNC(=O)[C@H](Cc2ccc(OP(=O)(O)O)cc2)NC(=O)Cc2ccc(F)cc2)c1 [Compound 10]  SBC2 (Homo sapiens, UniProt O14508)  ITC −TΔS    kcal/mol          -2.31
4  CCc1cc(CNC(=O)[C@H](Cc2ccc(OP(=O)(O)O)cc2)NC(=O)Cc2ccc(F)cc2)ccc1F [Compound 12]  SBC2 (Homo sapiens, UniProt O14508)  ITC −TΔS    kcal/mol          -0.43
5  C=CCc1cc(CNC(=O)[C@H](Cc2ccc(OP(=O)(O)O)cc2)NC(=O)Cc2ccc(F)cc2)ccc1F [Compound 13]  SBC2 (Homo sapiens, UniProt O14508)  ITC −TΔS    kcal/mol          -1.62
6  Cc1cc(CNC(=O)[C@H](Cc2ccc(OP(=O)(O)O)cc2)NC(=O)Cc2ccc(F)cc2)ccc1F [Compound 11]  SBC2 (Homo sapiens, UniProt O14508)  ITC −TΔS    kcal/mol          -2.98

====

TESTED_TARGET: SOCS2 (Homo sapiens, UniProt O14508)
Construct: endogenous SOCS2 from K562 lysates; endogenous in cells; host or cells: K562
Sequence (O14508 whole entry): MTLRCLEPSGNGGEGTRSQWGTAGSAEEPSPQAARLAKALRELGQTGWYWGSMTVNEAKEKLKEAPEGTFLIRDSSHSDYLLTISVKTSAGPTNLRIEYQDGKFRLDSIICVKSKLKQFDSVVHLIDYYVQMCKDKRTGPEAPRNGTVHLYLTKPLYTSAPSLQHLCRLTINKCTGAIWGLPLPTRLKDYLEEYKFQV
ASSAY_COMMENT: SOCS2 pulldown with biotinylated GHR_pY595 peptide from K562 cell lysates preincubated with compound
Assay type: biochemical
STUDY_CONDITIONS: K562 lysates; version shown in the peer review file; read-out: apparent IC50 of blockade of SOCS2 pull-down
pIC50: −log10 of the molar value.
READOUT: pIC50

> print(dat)
                           structure.string  readout  result.number
1  O=C(CCl)Nc1cccc(CNC(=O)[C@H](Cc2ccc(OP(=O)(O)O)cc2)NC(=O)Cc2ccc(F)cc2)c1    pIC50           5.05

====

TESTED_TARGET: SBC2 (Homo sapiens)
Construct: SOCS2 (amino acids 32–198); His6 (N, cleaved yes); made in house; host or cells: E. coli BL21(DE3)
ASSAY_COMMENT: Surface plasmon resonance (SPR) with SBC2 immobilized on the chip
Format: binding
STUDY_CONDITIONS: Table 2, second-round library, n = 1
READOUT: Kd

> print(dat)
                                   compound  readout  result
1  C=CCc1cccc(CNC(=O)[C@H](Cc2ccc(OP(=O)(O)O)cc2)NC(=O)Cc2ccc(F)cc2)c1 [Compound 14]       Kd  2.4 µM
2  Cc1cc(CNC(=O)[C@H](Cc2ccc(OP(=O)(O)O)cc2)NC(=O)Cc2ccc(F)cc2)ccc1F [Compound 11]       Kd  2.7 µM
3  CCc1cc(CNC(=O)[C@H](Cc2ccc(OP(=O)(O)O)cc2)NC(=O)Cc2ccc(F)cc2)ccc1F [Compound 12]       Kd  2.2 µM
4  C=CCc1cc(CNC(=O)[C@H](Cc2ccc(OP(=O)(O)O)cc2)NC(=O)Cc2ccc(F)cc2)ccc1F [Compound 13]       Kd  2.4 µM
5  O=C(Cc1ccc(F)cc1)N[C@@H](Cc1ccc(OP(=O)(O)O)cc1)C(=O)NCc1ccc(F)cc1 [Compound 9]       Kd  4.2 µM
6  Cc1cccc(CNC(=O)[C@H](Cc2ccc(OP(=O)(O)O)cc2)NC(=O)Cc2ccc(F)cc2)c1 [Compound 10]       Kd  3.7 µM

====

TESTED_TARGET: SBC2 (Homo sapiens, UniProt O14508)
Construct: SOCS2 (amino acids 32–198); His6 (N, cleaved yes); made in house; host or cells: E. coli BL21(DE3)
ASSAY_COMMENT: Isothermal titration calorimetry (ITC), direct titration
Type: binding
READOUT: Ki (nM)

> print(dat)
                                   compound  readout  result.number
1  O=C(CCl)Nc1cccc(CNC(=O)[C@H](Cc2ccc(OP(=O)(O)O)cc2)NC(=O)Cc2ccc(F)cc2)c1 [MN551]       Ki           2200

====

TESTED_TARGET: HiBiT-SOCS2 fusion in HeLa cells (Homo sapiens)
Construct: encoding SOCS2 (32–198) in pBiT3.1-N expression vector; expressed in transfected cells; host or cells: HeLa
ASSAY_COMMENT: Split-NanoLuc CETSA, permeabilised cell format
Type: cell-based
STUDY_CONDITIONS: permeabilised CETSA, 1 hr, mean ± SEM, n = 2; read-out: EC50 of Tagg shift
Procedure: One of the challenges with small-molecule binders displaying on-target activity with recombinant proteins, is to translate their utility to a cellular context. […] One of the advantages of CETSA is that target engagement can be monitored without the need for the development of a cell-permeable tracer molecule. […] N-terminal HiBiT-SOCS2 fusion was generated by encoding SOCS2 (32–198) in pBiT3.1-N expression vector (Promega). […] Luminescence was recorded with GloMax Discover Microplate Reader (Promega). […]
pEC50: −log10 of the molar value.
READOUT: pEC50

> print(dat)
                                   molecule  result.number
1  O=C(CCl)Nc1cccc(CNC(=O)[C@H](Cc2ccc(OP(=O)(O)O)cc2)NC(=O)Cc2ccc(F)cc2)c1 [MN551]           6.00

====

TESTED_TARGET: HiBiT-SOCS2 fusion in HeLa cells (Homo sapiens)
Construct: encoding SOCS2 (32–198) in pBiT3.1-N expression vector; expressed in transfected cells; host or cells: HeLa
ASSAY_COMMENT: Split-NanoLuc CETSA, live-cell mode
Type: cell-based
STUDY_CONDITIONS: 8 hours EC50, MN714 dose response CETSA, Mean
READOUT: EC50 (nM)

> print(dat)
                           structure.string                             tested.target  result.number
1  CC(C)(C)C(=O)OCOP(=O)(OCOC(=O)C(C)(C)C)Oc1ccc(C[C@H](NC(=O)Cc2ccc(F)cc2)C(=O)NCc2cccc(NC(=O)CCl)c2)cc1  HiBiT-SOCS2 fusion in HeLa cells (Homo sapiens)           2520
